tested on: 293T cells; assay: Fluorescent detection of Fluc-mRNA (cell transfection efficiency of LNP formulations); type: cell-based; details: comparator YK-301
I'd appreciate it if you marked entries Met when cell transfection efficiency, times that of YK-301 is lower than 20 times and Not met when it is not.

These recorded examples may help you get a feel for the data.
{"columns": ["molecule", "assignedLabel"],
 "data": [
  ["CCCCCCCCCCCOC(=O)CCCCCN(CCCC(=O)OCCCC(CCCCCCCCCC)CCCCCCCCCC)C[C@H](O)CN(CC)CCO [YK-310]", "Not met"],
  ["CCCCCCCCC(CCCCCCCC)COC(=O)CCCCCN(CCCCCC(=O)OCC(CCCCCCCC)CCCCCCCC)C[C@H](O)CN(C)CCO [YK-305]", "Not met"],
  ["CCCCCCCCC(CCCCCCCC)OC(=O)CCCCCN(CCCCCC(=O)OC(CCCCCCCC)CCCCCCCC)C[C@H](O)CN(CCO)CCO [YK-318]", "Met"],
  ["CCCCCCC(CCCCCC)CCOC(=O)CCCCCCN(CCCCCCC(=O)OCCC(CCCCCC)CCCCCC)C[C@H](O)CN(CCO)CCO [YK-319]", "Not met"]
]}

*Q* Please state whether cell transfection efficiency, times that of YK-301 is below 20 times for CCCCCCCCC(CCCCCCCC)COC(=O)CCCCCN(CCCCCC(=O)OCC(CCCCCCCC)CCCCCCCC)C[C@H](O)CN(CC)CCO [YK-312]
*A* Not met

* * *

// reported PDI (%) for each item listed
test: Particle size and polydispersity index (PDI) of lipid nanoparticles by dynamic light scattering; type: physicochemical; conditions: LNP formulation prepared from the cationic lipid, 25° C.
Respond numerically; units are % and should not be typed.

*Q* Give its PDI (%) value. Item: `CCCCCCCCCCC(CCCCCCCCCC)CCCOC(=O)CCCN(CCCC(=O)OCCCC(CCCCCCCCCC)CCCCCCCCCC)C[C@H](O)CN(CC)CCO`
*A* 34.9

* * *

system: female BALB/C mice; assay: Live imaging in mice: protein expression of Fluc-mRNA delivered by LNP formulations; assay type: in vivo; details: 24 h; comparator compound 23
measuredParameter: average radiation intensity, times that of compound 23 (times)
Respond numerically; units are times and should not be typed.

Here are 2 molecules together with their reported answers.
{"columns": ["molecule", "unitSpec", "experimentalValue"],
 "data": [
  ["CCCCCCC(CCCCCC)CCOC(=O)CCCCCCN(CCCCCCC(=O)OCCC(CCCCCC)CCCCCC)C[C@H](O)CN(CCO)CCO [YK-319]", "times", 23.28],
  ["CCCCCCCCC(CCCCCCCC)COC(=O)CCCCCN(CCCCCC(=O)OCC(CCCCCCCC)CCCCCCCC)C[C@H](O)CN(C)CCO [YK-305]", "times", 27.01]
]}

*Q* What measured average radiation intensity, times that of compound 23 is associated with CCCCCCCCC(CCCCCCCC)OC(=O)CCCCCN(CCCCCC(=O)OC(CCCCCCCC)CCCCCCCC)C[C@H](O)CN(CCO)CCO [YK-318] on female BALB/C mice?
*A* 9.27

*Q* # iterate: CCCCCCCCCCCOC(=O)CCCCCN(CCCC(=O)OCCCC(CCCCCCCCCC)CCCCCCCCCC)C[C@H](O)CN(CC)CCO [YK-310]
*A* 28.24

*Q* # iterate: CCCCCCCCC(CCCCCCCC)COC(=O)CCCCCN(CCCCCC(=O)OCC(CCCCCCCC)CCCCCCCC)C[C@H](O)CN(CC)CCO [YK-312]
*A* 21.80
